Hi there, I'd appreciate the recorded photoluminescence quantum yield for every entry that follows.
- experiment-description: photoluminescence quantum yield (fraction); solvent given as SMILES
- condition-set: in ClCCl

>>> df
                                   molecule  data_value
0      c1ccc2c(c1)CCc1c-2cnc2c1-c1ccccc1CC2       0.291
1  CCOC(=O)c1ccc(C2=Cc3cc4ccccc4cc3P2(=O)c2ccccc2)cc1 (stereo not given)        0.54
2  CN(C)c1cc(-c2ccc(C#Cc3ccccc3)cc2)cc2ccccc12         0.7

Give photoluminescence quantum yield for each of the items listed below.
1. Ic1ccc(-c2c3ccc(=[N+]4CCCCC4)cc-3oc3cc(N4CCCCC4)ccc23)cc1
2. Clc1ccc(/C=C/c2ccncn2)cc1

output:
1: 0.85; 2: 0.01

---

- experiment-description: photoluminescence quantum yield (fraction); solvent given as SMILES
- condition-set: in C1CCCCC1
reported-metric: photoluminescence quantum yield
Give bare numbers.

smiles-entry	photoluminescence quantum yield
CC1(C)CC(NCc2ccc3ccc4cccc5ccc2c3c45)CC(C)(C)N1	0.55
COc1ccc2c(c1)C(=O)c1cc(OC)cc(OC)c1-2	0.0024
Nc1ccc2c3cccc4cccc(c5cccc1c52)c43	0.55
Nc1cccc2c1C(=O)c1ccccc1-2	0.031
c1ccc(-c2c3ccccc3c(-c3ccccc3)c3ccccc23)cc1	0.97
Cc1ccc(C)c(C)c1	0.41
CCCC1(CCC)c2ccccc2-c2ccccc21	0.36
c1ccc(-c2nn(-c3ccccc3)c3nc4ccc(-n5c6ccccc6c6ccccc65)cc4cc23)cc1	0.88

Can you give me photoluminescence quantum yield for all of these, one by one?
1. c1ccc2cc(-n3cnc4ccccc43)ccc2c1
2. CNc1ccc2c(c1)-c1ccccc1C2=O
3. COc1cccc(C2=c3c(c4ccc(C(C)(C)C)cc4c4cc(C(C)(C)C)ccc34)=[N+]3C2=C(c2ccccc2)c2c(-c4cccc(OC)c4)c4c5ccc(C(C)(C)C)cc5c5cc(C(C)(C)C)ccc5c4n2[B-]3(F)F)c1

output:
1: 0.23; 2: 0.045; 3: 0.62

---

- experiment-description: photoluminescence quantum yield (fraction); solvent given as SMILES
- condition-set: in CN(C)C=O
Exercise: for every item that follows, state its recorded photoluminescence quantum yield.
Give bare numbers.

Worked cases, answers included:
smiles-entry	photoluminescence quantum yield
CN(C)c1ccc(C#Cc2ccc(C=O)cc2)cc1	0.046
CCCCCCOc1ccc(N(c2ccc(OCCCCCC)cc2)c2ccc(-c3sc(-c4ccc(N(c5ccc(OCCCCCC)cc5)c5ccc(OCCCCCC)cc5)cc4)c4nc(-c5ccc(OC)cc5)c(-c5ccc(OC)cc5)nc34)cc2)cc1	0.0287
NCCCCCCCCCCCCN1C(=O)c2ccc3c4ccc5c6c(ccc(c7ccc(c2c37)C1=O)c64)C(=O)N(c1ccc(O)cc1)C5=O	0.91
O=C1/C(=C2\Sc3ccc(S(=O)(=O)Nc4ccccc4)cc3C2=O)Sc2ccc(S(=O)(=O)Nc3ccccc3)cc21	0.018

List the reported photoluminescence quantum yield of each compound below.
1. O=C1OC(=O)c2cc(Oc3ccccc3)c3c4ccc5c6c(cc(Oc7ccccc7)c(c7ccc1c2c73)c64)C(=O)OC5=O
2. COC(=O)c1cc(=O)n(C)c2cc(-c3ccc(OC)cc3)sc12
3. CN(C)c1ccc2nc3c(cc2c1)c(-c1ccccc1)nn3-c1ccccc1
4. F[B-]1(F)n2c(c3cc4ccccc4cc3c2-c2ccccc2)C=C2c3cc4ccccc4cc3C(c3ccccc3)=[N+]21

output:
1: 0.6; 2: 0.99; 3: 0.46; 4: 0.14

---

- experiment-description: photoluminescence quantum yield (fraction); solvent given as SMILES
- condition-set: in CCOC(C)=O
Each entry belongs to exactly one class, chosen by where its photoluminescence quantum yield falls: low band = under 0.1, middle band = from 0.1 up to 0.3, high band = 0.3 and over

Would you please look over these solved cases?
smiles-entry	label
CN(C)c1ccc(-c2cc(=O)c3ccccc3o2)cc1	high band
CCN(CC)/C(C)=N\c1ccc2c3c(cccc13)C(=O)c1ccccc1-2	middle band
COc1nc(Cl)nc(Nc2ccc3cc4ccccc4cc3c2)n1	middle band
CCn1ncc2c3c(C#N)c4c5ccccc5n(CC)c4nc3ccc21	high band
CCn1c(-c2ccc(-c3ccc4c(c3)C(c3ccccc3)(c3ccccc3)c3ccccc3-4)cc2)c(-c2ccc3ccccc3c2)c(-c2ccc3ccccc3c2)c1-c1ccc(-c2ccc3c(c2)C(c2ccccc2)(c2ccccc2)c2ccccc2-3)cc1	high band
CN(C)c1ccc(C2=Cc3ccc4ccccc4[n+]3[B-](F)(F)O2)cc1	high band

input: Which class holds CCN(CC)c1ccc2c(c1)oc(=O)c1cc3cnn(-c4ccccc4)c3nc12 ?
output: middle band

input: Into which bin does this molecule go? COc1ccc(C2=C3C=c4c(oc5cc6c(cc45)[C@H]4CC[C@]5(C)C(=O)CC[C@H]5[C@@H]4CC6)=[N+]3[B-](F)(F)n3c2cc2c4cc5c(cc4oc23)CC[C@@H]2[C@@H]5CC[C@]3(C)C(=O)CC[C@@H]23)cc1
output: high band

input: GET /class?item= COC1=[N+]2C(=C(c3ccccc3)c3cc(SC#N)c(OC)n3[B-]2(F)F)C=C1SC#N
output: middle band

input: Using the reported photoluminescence quantum yield, which band applies to CC(=O)Nc1ccc(/C=C2\OC(=O)c3cc(N)ccc32)cc1 ?
output: low band

input: Which class is correct for the following molecule? CCN(CC)c1ccc2c(c1)oc(=O)c1cc3c(-c4ccccc4)nn(-c4ccccc4)c3nc12
output: middle band

input: Could you place Cc1ccc2c(c1)C(=O)c1ccncc1-2 in its proper category? Many thanks.
output: low band

input: Hey, which category is c1ccc2cc(-n3cnc4ccccc43)ccc2c1 in, do you know?
output: middle band

input: Where would CN(C)c1ccc(C2=Cc3c4ccccc4cc[n+]3[B-](F)(F)O2)cc1 land among the classes by reported photoluminescence quantum yield?
output: high band

input: Class label required: CN(C)c1ccc(/C=C2\CC/C(=C\c3ccc(N(C)C)cc3)C2=O)cc1
output: low band

input: # bin label for c1cc2c([nH]c3c4[nH]c5sccc5c4c4nsnc4c23)s1
output: high band

input: Form: Item = CCOC(=O)c1sc2nc(-c3ccccc3)c(C)c(C#N)c2c1N ; Class = ?
output: low band

input: Entry CC1=N/C(=C\c2ccncc2)C(=O)N1C belongs to which category?
output: low band

---

- experiment-description: photoluminescence quantum yield (fraction); solvent given as SMILES
- condition-set: in ClCCl
Can you tell me photoluminescence quantum yield for the items I'm about to list?
Answers are plain numbers.

Fill in photoluminescence quantum yield for each of the 3 molecules listed.
1. CN(C)c1ccc(C#Cc2cc(C#Cc3ccc(C(F)(F)F)cc3)c3ccc4c(C#Cc5ccc(C(F)(F)F)cc5)cc(C#Cc5ccc(C(F)(F)F)cc5)c5ccc2c3c54)cc1
2. c1ccc(N2N=C(c3cccc4ccccc34)CC2c2ccc3ccc4cccc5ccc2c3c45)cc1 (configuration not stated)
3. c1ccc(-n2nc(-c3ccc(N4c5ccccc5Sc5ccccc54)cc3)nc2-c2ccccn2)cc1

output:
1: 0.43; 2: 0.58; 3: 0.0562

---

For each of the molecules below, state its photoluminescence quantum yield.
- experiment-description: photoluminescence quantum yield (fraction); solvent given as SMILES
- condition-set: in ClCCl

>>> df
                               smiles_entry                  reported_metric  data_value
0  Cc1ccc(-c2[nH]c(=O)n3c2-c2ccccc2C3=O)c(O)c1  photoluminescence quantum yield        0.63
1  CC(C)c1cccc(C(C)C)c1N1C(=O)c2cccc3c(Oc4ccc(Cl)cc4)ccc(c23)C1=O  photoluminescence quantum yield        0.64
2           Cc1cc2cc(C)c3c4ccccc4[nH]c3c2s1  photoluminescence quantum yield       0.047
3  N#Cc1cnc(-c2c3ccccc3c(-c3ncc(C#N)cn3)c3ccccc23)nc1  photoluminescence quantum yield        0.54
4  F[B-]1(F)n2c(c3cc4ccccc4cc3c2-c2ccccc2)C=C2c3cc4ccccc4cc3C(c3ccccc3)=[N+]21  photoluminescence quantum yield        0.16
5  CCCCCCCCC1(CCCCCCCC)c2ccccc2-c2ccc(N(c3ccc(-n4c5ccccc5c5ccccc54)cc3)c3ccc4c(c3)C(CCCCCCCC)(CCCCCCCC)c3ccccc3-4)cc21  photoluminescence quantum yield         0.3

Record photoluminescence quantum yield per entry; entries follow.
1. O=Cc1cc(C=O)c2ccc3c(N4CCCCC4)cc(N4CCCCC4)c4ccc1c2c43
2. CCCCCCCCOc1ccc(C#Cc2ccc3c(c2)c2ccccc2n3CCCCCCCC)c(OCCCCCCCC)c1

output:
1: 0.91; 2: 0.33

input: Field request: photoluminescence quantum yield | item: COc1ccc(-c2cc3c(ccc4sc5ccc6sccc6c5c43)s2)cc1
output: 0.12

---

- experiment-description: photoluminescence quantum yield (fraction); solvent given as SMILES
- condition-set: in CC#N
Hi there, I'd appreciate the recorded photoluminescence quantum yield for every entry that follows.
One number for each entry.

Solved entries:
In [3]: df
Out[3]:
                 smiles_entry  data_value
0             Oc1ccc2ncccc2c1       0.088
1  CNc1ccc2c(c1)-c1ccccc1C2=O       0.064

// for each molecule below, give its photoluminescence quantum yield
1. Cc1ccc(-c2ccc(/C=C/c3ccc(C#N)cc3)cn2)nc1
2. CC(C)[Si]1(C(C)C)c2cc(C#N)ccc2-c2ccc(N(c3ccccc3)c3ccccc3)cc21
3. Nc1ccc2c(c1)C(=O)O/C2=C\c1ccc(Cl)cc1
4. CC1=CC(C)=[N+]2C1=C(c1ccc(N3CCOCC3)cc1)c1c(C)cc(C)n1[B-]2(F)F
5. Cc1cnc(NC(=O)C2=C(O)c3ccccc3S(=O)(=O)N2C)s1
6. CN(C)c1ccc(/C=C/C=C/c2ccc(C#N)cc2)cc1

output:
0.27
0.67
0.08
0.001
0.0147
0.223

# per-item lookup of photoluminescence quantum yield; items listed below
1. c1ccc2c(c1)cc(-c1cc(-c3nccs3)nc(-c3nccs3)c1)c1ccccc12
2. CN(C)c1ccc(C2=Nc3scc[n+]3[B-](F)(F)O2)cc1
3. Nc1cc2ccc3cccc4ccc(c1)c2c34

output:
1. 0.234
2. 0.1
3. 0.14

meta.source: the Deep4Chem optical property database
